The measurements presented in this section are drawn from the RNAGym collection of RNA variant scans (doi:10.1073/pnas.2313332121).

B1: TPR t1 (parent)
chain: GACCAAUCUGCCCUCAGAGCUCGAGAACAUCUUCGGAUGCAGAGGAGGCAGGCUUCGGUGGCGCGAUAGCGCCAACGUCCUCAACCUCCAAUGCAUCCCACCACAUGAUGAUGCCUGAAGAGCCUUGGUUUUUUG

variants of: B1; assay: polymerase ribozyme fitness, log enrichment relative to wild type (log ratio); higher = more active; in vitro selection for triplet polymerase activity
polymerase ribozyme fitness (log ratio) of -4 or higher: Condition met. Under -4: Condition not met.

A27C U78A; Condition met

Answer whether polymerase ribozyme fitness (log ratio) of C15U C34A G60C C82G A105G G113U is greater than or equal to -4.
Condition not met

Kindly determine if polymerase ribozyme fitness (log ratio) recorded for C13A C22U is above or exactly -4.
Condition not met

API: above_or_equal(metric=polymerase ribozyme fitness (log ratio), cutoff=-4) for item C13U C56U
Condition met

Check if polymerase ribozyme fitness (log ratio) >= -4 (inclusive). Item: C3A C8A C12A G61A
Condition met

Is polymerase ribozyme fitness (log ratio) for A37U G52U G69C at or above -4?
Condition met
